system: MDA-MB-435 melanoma; experiment: NCI-60 one-dose screen, 48 h (100 = growth as untreated, 0 = no growth, -100 = all killed); settings: 10 µM unless noted
This is part of a sample that, as a whole, favours compounds with a hit. Of some 83,000 tested, about 20% had one in any assay.
growth reference
State just the number; it will be interpreted in %.

Here's what some known entries look like.
Exam item: Recorded growth of OCc1c(-c2ccccc2)nc2sccn12 , please.
Marked response: 114

Exam item: Fill in the blank: the reported growth of CN(C)c1nc(N)c(N=O)c(N)n1 is ____.
Marked response: 110

Exam item: Look up growth: CCC1CCc2nc3sc(C(=O)Nc4ccccc4C)c(N)c3cc2C1 (stereo not given)
Marked response: -38.4

Exam item: Quick one: growth of COc1ccc(NC(=O)/N=c2\oc3c(OC)cccc3cc2-c2cc3ccccc3[nH]2)cc1 ?
Marked response: 82.6

Exam item: Name the reported growth value associated with the compound COc1ccc(-c2nc3sccn3c2-c2ccnc(NCCCNS(=O)(=O)c3ccc4ccccc4c3)n2)cc1
Marked response: 50

Exam item: Would you kindly share the measured growth for COc1cccc(/C=C2\SC(N3CCN(c4ccccn4)CC3)=NC2=O)c1 ?
Marked response: 108

New cases:
Exam item: Which growth is reported for this compound? O=C(CCl)NCCNc1nccc(Nc2ccc(S(=O)(=O)Nc3ccccn3)cc2)n1
Marked response: 7.62

Exam item: Look up growth for this compound: COc1cc(NC(=O)c2cc3ccccc3nc2Nc2ccc(F)cc2)cc(OC)c1OC
Marked response: 27

Exam item: Fill in: growth of CCc1c(C(=O)Nc2ccc3ccccc3c2)[nH]c(C)c1C(C)=O is ___
Marked response: 78.7

Exam item: What value of growth has been recorded for this entry: CCCCCc1c(C)[nH]c(/C=c2\[nH]/c(=C3/C=c4ccccc4=N3)cc2OC)c1C
Marked response: -53.6

---

Property: growth; scope: individual molecules
system: U251 CNS; assay: NCI-60 one-dose screen, 48 h (100 = growth as untreated, 0 = no growth, -100 = all killed); conditions: 10 µM unless noted
Compounds without any hit were thinned out: in the full panel of roughly 83,000, 20% have a hit.
Please give a number only; it is taken to be in %.

Use these answered entries as a reference point.
Exam item: What value of measured growth is listed for O=S(=O)(NCCCNc1cc(-c2cn(-c3ccccc3)nc2-c2cccc(O)c2)ccn1)c1cccc(F)c1 ?
Marked response: 40.1

Exam item: Which growth is listed for CCn1cc(C(=O)O)c(=O)c2cc(F)c(N3CCN(S(=O)(=O)c4c(C)cc(C)cc4C)CC3)cc21 ?
Marked response: 83.3

Exam item: Name the reported growth value associated with the molecule CCCCNC(=O)NS(=O)(=O)c1ccc(N2N=C(c3ccc(C)cc3C)CC2c2ccc(OC)cc2)cc1 (centres undefined)
Marked response: 44.9

Exam item: Record request: growth value, item O=S(=O)(NCCCNc1cc(-c2cn(-c3ccccc3)nc2-c2cccc(O)c2)ccn1)c1ccc(C(F)(F)F)cc1
Marked response: 36.8

Exam item: Field request: growth | item: CN(C)c1ncc(-c2ccc(C(F)(F)F)cc2)c(NC2CCCCCC2)n1
Marked response: 40.1

Exam item: Param item = CC(C)C[C@H](NC(=O)Cn1ccc(NCc2ccccc2)cc1=O)B(O)O ; retrieve measured growth.
Marked response: 44.6

New cases:
Exam item: Recorded growth for COC12CC(=O)C(C(C)=O)=C(O)C1(C)c1c(O)c(C)c(O)c(C(C)=O)c1O2 (centres undefined) , please?
Marked response: 57.2

Exam item: Find the recorded growth belonging to CCCCCCCCCCCCCCCCC(Br)C(=O)O (centres undefined) and report it.
Marked response: 102

Exam item: Record request: growth value, item Cc1cccc(-n2c(C)nc3ccc(NC(=O)NCCCl)cc3c2=O)c1
Marked response: 100

---

system: BT-549 breast; experiment: NCI-60 one-dose screen, 48 h (100 = growth as untreated, 0 = no growth, -100 = all killed); conditions: 10 µM unless noted
About 83,000 compounds went through this panel and 20% of them were active in at least one assay; those are over-represented in the sample as a whole.
// values below are reported growth
Number only, in %; omit the unit.

Below, 5 compounds whose answers are already recorded.
Exam item: Requested field: growth. Item: CN(C)c1ccc(/C=C\N=Nc2ccc(Br)cc2)cc1
Marked response: 69.1

Exam item: // returns reported growth for input CCN(CC)P(=O)(N(CC)CC)N(CCCSC/C=C(\C)CC/C=C(\C)CCC=C(C)C)CCCN1CCN(C)CC1
Marked response: 102

Exam item: Would you kindly share the measured growth for CC(=O)N1Cc2ccccc2C(C)Cc2cc(Cl)ccc21 (centres undefined) ?
Marked response: 115

Exam item: Which measured growth value corresponds to CC(C)(C)c1cc(-c2nc3ccc(N4CCN(CCO)CC4)cc3[nH]2)cc(C(C)(C)C)c1O ?
Marked response: 92

Exam item: Recorded growth for Cc1cccc2cc(/C=C/C(=O)/C=C/c3ccc(Cl)cc3)c(=O)[nH]c12 , please?
Marked response: 7.28

---
Exam item: Which value of growth has been reported for COC(=O)CCCCN=Cc1c(O)c(O)c(C(C)C)c2cc(C)c(-c3c(C)cc4c(C(C)C)c(O)c(O)c(C=NCCCCC(=O)OC)c4c3O)c(O)c12 in the records?
Marked response: 28.2

Exam item: Query: growth; subject: O=S(=O)(NCCCNc1nccc(-c2c(-c3ccccc3)nc3sccn23)n1)c1ccc(F)cc1
Marked response: 54.3

Exam item: Dear colleague, I am looking for the recorded growth of the following compound: CC1CCN(C(=O)CSc2nc3sc4c(c3c(=O)[nH]2)CCCC4)CC1
Marked response: 95.2

---

System: NCI-H23 lung
Test: NCI-60 one-dose screen, 48 h (100 = growth as untreated, 0 = no growth, -100 = all killed)
Conditions: 10 µM unless noted
Procedure: Growth inhibition of the NCI-H23 human Non-Small Cell Lung tumor cell line is measured as a screen for anti-cancer activity. Cells are grown in 96 well plates and exposed to the test compound for 48 hours. Compounds are tested at a single concentration, which is 10^-5 M for most compounds. The reported endpoint is percent growth (GI% or GIPRCNT), where numbers from 0 - 100% represent growth inhibition, and numbers from -100% - 0 represent cell death. […]
About 83,000 compounds went through this panel and 20% of them were active in at least one assay; those are over-represented in the sample as a whole.
readout-type: growth (%)
A number alone suffices; assume %.

Exam item: So what's the measured growth for this one? Cc1ccc(Cn2c(-c3nonc3N)nc3ccccc32)cc1
Marked response: 83.3

Exam item: Request the reported growth associated with COc1ccc(/C=c2\sc3n(c2=O)C2C(NN=3)N(C)C(=O)N2C)cc1 (stereo unspecified)
Marked response: 36.3

Exam item: What value of growth has been reported for the following molecule? COc1cc(OC)cc(-c2n[nH]nc2-c2ccc3c(c2)OCO3)c1
Marked response: 30.1

Exam item: Requested field: growth. Item: CCCCCC(=O)OCc1ccccc1
Marked response: 102

Exam item: Any idea what its growth is? The molecule is COc1ccc(/C=C/c2cc(N3CCOCC3)c3cc(F)c(F)cc3n2)cc1OC
Marked response: 42.3

Exam item: Which growth value is on record for O=C(CC(O)c1ccncc1)c1ccccc1 (stereo unspecified) ?
Marked response: -18.6

---

test system: SNB-19 CNS; test: NCI-60 one-dose screen, 48 h (100 = growth as untreated, 0 = no growth, -100 = all killed); conditions: 10 µM unless noted
About 83,000 compounds went through this panel and 20% of them were active in at least one assay; those are over-represented in the sample as a whole.
# binning rule on growth: zone 1: < 70%; zone 2: ≥ 70% and < 90%; zone 3: ≥ 90%

Example entries begin here.
Exam item: Where would CC(C)C[C@H](NC(=O)Cn1ccc(NCc2ccccc2)cc1=O)B(O)O land among the classes by reported growth?
Marked response: zone 1

Exam item: Assign a category based on measured growth for COc1cc(NCCCN=C(N)NC(N)=NC(C)C)c2ncccc2c1 and give only the class name.
Marked response: zone 2

Exam item: Into which category would you place COc1cccc(C2CC(=O)Nc3c2c(C)nn3-c2nc3ccccc3[nH]2)c1OC (stereo not given) ?
Marked response: zone 2

Exam item: Note: place this compound into its band. Item: CCN(CC)CCC(=O)c1cccc2ccccc12
Marked response: zone 3

Exam item: Class label required: c1cc(-c2ccc3c(c2)OCO3)n2nccc2n1
Marked response: zone 3

Exam item: State the class of the compound shown: O=c1[nH]c(-c2cn(-c3ccc(Cl)cc3)nn2)nc2ccccc12
Marked response: zone 2

Exam item: Assign a bin to COC(=O)CCCCN=Cc1c(O)c(O)c(C(C)C)c2cc(C)c(-c3c(C)cc4c(C(C)C)c(O)c(O)c(C=NCCCCC(=O)OC)c4c3O)c(O)c12
Marked response: zone 1

Exam item: Note: place this compound into its band. Item: Cc1ccc(S(=O)(=O)OC2COCOC2C(OS(=O)(=O)c2ccc(C)cc2)C2OCOCC2OS(=O)(=O)c2ccc(C)cc2)cc1 (stereo not given)
Marked response: zone 3

Continuing:
Exam item: Form field 'band' for COc1cc(Cn2c(-c3nonc3N)nc3ccccc32)ccc1C
Marked response: zone 1
